experiment: S. Typhimurium GFP fluorescence dose response in modified counterscreen for PhoP regulon inhibitor project (AID 1981); conditions: 4 h; series mostly up to 150 µM
Among all 2,200 compounds or so, about 480 (22%) were called active. These entries were drawn from the full list. Entries with a potency or affinity are not part of this list.
MEASURE_NAME: outcome

Reference set, count: 8
* COC(=O)c1[nH]c2ccc(C)cc2c1NC(=O)Nc1ccc(OC)cc1 | inactive
* C=CCNCC#CCOc1ccc(OC)cc1 | inactive
* CCOC(=O)C1=C(C)NC(SCc2cc(=O)[nH][nH]2)=C(C#N)C1c1cccs1 (configuration not stated) | inactive
* O=C(/C=C/c1ccc2c(c1)OCO2)N1CCN(c2ccccc2F)CC1 | inactive
* Cc1ccccc1CS(=O)(=O)c1snnc1C | inactive
* O=c1cc(-c2ccc([N+](=O)[O-])cc2)nc2cc(-c3ccc(Cl)cc3)[nH]n12 | inactive
* CCN(CC(=O)Nc1ccc(N2CCOCC2)cc1)Cc1nc2ccccc2c(=O)[nH]1 | inactive
* Cc1cc(-c2c(C)n([O-])c(C)c(C)[n+]2=O)ccc1F | inactive

What value of measured outcome is listed for CCOc1ccc(NC(=O)CCC(=O)n2nc(C)cc2C)cc1 ? inactive

Same lookup for CC(=O)N1CCC(N(CCN2CCOCC2)C(=S)Nc2cccc(C)c2C)CC1 , please. inactive

Now the molecule N#Cc1c(-c2ccccc2)ccn(Cc2cccc(Cl)c2)c1=O inactive

Lookup CCCCCOc1ccc(NC(=O)C(=O)NCCC2=CCCCC2)cc1 inactive

Same question for Cc1cccc2cc(C#N)c(N3CCN(C)CC3)nc12 please. inactive

Try this molecule too: O=C(CSc1ncnc2ccccc12)Nc1cc(S(=O)(=O)N2CCCCC2)ccc1Cl inactive

Next entry: COc1ccc(/C=C2\CN(Cc3ccccc3)C/C(=C\c3ccc(OC)cc3)C2=O)cc1 inactive

Can you handle Cc1ccc(SC(c2ccc(C)cc2)C(Cn2cncn2)C(=O)c2ccccc2)cc1 (configuration not stated) next? inactive

Same again, this time with CCn1c(CNC(=O)c2cccc(C)c2)nc2ccccc21 inactive

Continue with Cc1cc(C(=O)COC(=O)CNC(=O)c2ccco2)c(C)n1Cc1ccco1 inactive

Now the same for Cc1ccc(CNC(=O)C2CCCN(S(=O)(=O)c3c(C)noc3C)C2)cc1 (configuration not stated) inactive

Can you handle COc1ccc(NC(=O)CSc2nc(C)cs2)cc1OC next? inactive

Input CC1CCN(C(=O)c2ccc3c(c2NCCO)C(=O)c2ccccc2C3=O)CC1 inactive

Next molecule: Cc1ccc(OCc2nnc(SCC(=O)Nc3ccc4c(c3)OCO4)n2C)cc1 inactive

----------
assay: S. Typhimurium GFP fluorescence dose response in modified counterscreen for PhoP regulon inhibitor project (AID 1981); conditions: 4 h; series mostly up to 150 µM
About 480 (22%) of roughly 2,200 compounds were called active. A selection follows. Measured potencies and affinities stand elsewhere.
MEASURE_NAME: outcome

Solved cases (8 shown):
- Cc1[nH]c2ccccc2c1C(=O)COC(=O)c1ccc([N+](=O)[O-])s1: inactive
- CN(C)S(=O)(=O)Oc1ccsc1C(=O)Nc1ccccc1Cl: inactive
- CN1C(=O)/C(=C/c2cccn2-c2ccc3ccccc3c2)C(=O)NC1=S: inactive
- Brc1ccc(OCCn2ccnc2)cc1: inactive
- O=S(=O)(c1ccccc1)N(CC(O)Cn1c2ccccc2c2ccccc21)c1ccccc1 (stereo unspecified): inactive
- Cc1ccc(C(=O)c2ccccc2C(=O)O)c(O)c1: inactive
- Nc1nc(CSc2nc3ccccc3[nH]2)nc(N2CCOCC2)n1: inactive
- COc1cccc2c(=O)c3c(cnn3C)n(C)c12: inactive

Which outcome is reported for this compound? CC(=Nc1c(C)n(C)n(-c2ccccc2)c1=O)c1c(O)n(Cc2ccccc2)c(=O)[nH]c1=O inactive

Same question, CCOC(=O)C1(S(=O)(=O)c2ccccc2)CCN(Cc2ccc(Cl)cc2)CC1 this time inactive

Okay, and FC(F)Oc1ccc(NC(=S)NCc2nc3ccccc3[nH]2)cc1 ? inactive

----------
experiment: S. Typhimurium GFP fluorescence dose response in modified counterscreen for PhoP regulon inhibitor project (AID 1981); settings: 4 h; series mostly up to 150 µM
Out of some 2,200 compounds screened, about 480 (22%) were called active. A selection follows. Measured potencies and affinities stand elsewhere.
MEASURE_NAME: outcome

* CCn1c(SCC(=O)N2CCCCC2)nc(O)cc1=O | inactive
* COc1ccc(NC2=NC3(CCCCC3)N=C(N)N2)cc1 | inactive
* CN1c2ccccc2C(C)(C)[C@]12C=Cc1cc(O)ccc1O2 | inactive
* O=C(CCN1C(=O)C2C3C=CC(C3)C2C1=O)N1CCN(c2cccc(Cl)c2)CC1 (configuration not stated) | inactive
* CCN(CC)c1ccc(/C=C(\C#N)C(=O)NCc2ccco2)cc1 | inactive

Dear colleague, I am looking for the recorded outcome of the following compound: NC(=O)c1ccccc1N=Cc1ccccn1 inactive

Now consider O=C(Cc1ccccc1)NC1c2ccccc2-c2ccccc21 . inactive

Now give it for O=c1c(Br)c(Br)cnn1-c1ccccc1 too. inactive

Entry to check: CCOc1ccc(CSC(CC(=O)O)C(=O)O)cc1 (configuration not stated) inactive

// same read-out, input: O=C(CSCc1ccccc1)Nc1ccc2c(c1)OCO2 inactive

One more compound: CCc1ccc(OCC(=O)Nc2ccc(-c3cc4ccccc4oc3=O)c(OC)c2)cc1 inactive

Next entry: NC1=NC(=Nc2cccc(Cl)c2)c2ccccc21 inactive

Data credit: PubChem BioAssay AID1981
